- test_settings: in ethanol, 313.15 K

{"columns": ["compound", "solubility (mole fraction)"],
 "data": [
  ["CCOc1nc2cccc(C(=O)OC(C)OC(=O)OC3CCCCC3)c2n1Cc1ccc(-c2ccccc2-c2nn[nH]n2)cc1 (stereo unspecified)", 0.00235]
]}

* * *

- test_settings: in acetone, 308.15 K

{"columns": ["molecule", "solubility (mole fraction)"],
 "data": [
  ["CCOc1nc2cccc(C(=O)OC(C)OC(=O)OC3CCCCC3)c2n1Cc1ccc(-c2ccccc2-c2nn[nH]n2)cc1 (stereo unspecified)", 0.0111]
]}

* * *

- test_settings: in ethanol, 333.15 K

{"columns": ["molecule", "solubility (mole fraction)"],
 "data": [
  ["CCOc1nc2cccc(C(=O)OC(C)OC(=O)OC3CCCCC3)c2n1Cc1ccc(-c2ccccc2-c2nn[nH]n2)cc1 (stereo unspecified)", 0.00824]
]}
